Hello, the source for this data is ChEMBL document CHEMBL1145246, in case you need it.

Consider the following compounds and their measured log10 EC50 readings.
# system.name: UniProt:P35408
# protocol: Effective concentration required for prostanoid EP4 receptor activity was determined
// units: nM (pre-log); metric: EC50; scale: log10

O=C(O)CCCSCCN1C(=O)CCC[C@@H]1/C=C/[C@@H](O)CCC1CCC1 = 1.53
COCc1cccc(C[C@H](O)/C=C/[C@H]2CCCC(=O)N2CCCCCCC(=O)O)c1 = 1.64
CCCCC(C)(C)C(O)/C=C/[C@H]1CCCC(=O)N1CCSCCCC(=O)O (some centres undefined) = 2.46

-- ask I am curious: what log10 EC50 value has been reported for Cc1cc(O)ccc1-c1cccc(C(=O)CC[C@H]2CCCC(=O)N2CCCCCCC(=O)O)c1 ?
-- reply 4.32

-- ask Repeat for the following compound: COCc1cccc(C[C@H](O)/C=C/[C@H]2CCCC(=O)N2CCSCCCC(=O)O)c1
-- reply 1.64

-- ask Repeat for the following compound: O=C(O)CCCSCCN1C(=O)CCC[C@@H]1/C=C/C(O)C1(c2ccccc2)CC1 (some centres undefined)
-- reply 2.41

-- ask Repeat for the following compound: Cc1cc(Cl)ccc1-c1cccc([C@H](O)CC[C@H]2CCCC(=O)N2CCSCCCC(=O)O)c1
-- reply 0.79

-- ask Repeat for the following compound: Cc1cc(O)ccc1-c1cccc([C@@H](O)CC[C@H]2CCCC(=O)N2CCCCCCC(=O)O)c1
-- reply 2.04

-- ask Repeat for the following compound: Cc1cc(C[C@H](O)/C=C/[C@H]2CCCC(=O)N2CCCCCCC(=O)O)ccc1O
-- reply 2.45

###

# system.name: Prostaglandin E2 receptor EP4 subtype (Homo sapiens)
# Sequence (P35408 whole entry): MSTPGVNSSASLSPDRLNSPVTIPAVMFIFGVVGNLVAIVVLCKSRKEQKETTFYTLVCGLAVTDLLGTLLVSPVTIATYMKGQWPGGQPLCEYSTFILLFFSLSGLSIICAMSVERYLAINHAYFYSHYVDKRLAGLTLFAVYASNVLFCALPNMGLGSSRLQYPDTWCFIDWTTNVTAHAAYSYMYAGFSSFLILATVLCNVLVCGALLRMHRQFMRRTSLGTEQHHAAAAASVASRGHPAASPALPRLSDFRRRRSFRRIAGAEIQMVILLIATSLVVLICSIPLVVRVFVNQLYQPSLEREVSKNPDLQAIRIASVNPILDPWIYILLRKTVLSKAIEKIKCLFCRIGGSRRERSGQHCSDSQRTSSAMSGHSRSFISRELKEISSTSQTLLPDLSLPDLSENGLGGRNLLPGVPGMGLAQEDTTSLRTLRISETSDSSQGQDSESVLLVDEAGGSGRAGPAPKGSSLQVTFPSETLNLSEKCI
# protocol: Effective concentration required for prostanoid EP4 receptor activity was determined
outcome.measure: EC50 (µM)
Output spec: scalar in µM, unitless text.

Examples from the recorded data:
O=C(O)CCCSCCN1C(=O)CCC[C@@H]1/C=C/[C@@H](O)CCC1CC1 = 0.19
CC(C)c1cc(C[C@H](O)/C=C/[C@H]2CCCC(=O)N2CCCCCCC(=O)O)ccc1O = 1.73

Note: attention shifts to another entry.
-- ask I am curious: what EC50 value has been reported for O=C(O)CCCSCCN1C(=O)CCC[C@@H]1CC[C@@H](O)c1ccc(C(F)(F)F)o1 ?
-- reply 0.63

###

# protocol: Binding affinity for prostanoid EP4 receptor
outcome.measure: Ki (nM)
Output spec: scalar in nM, unitless text.

O=C(O)CCCSCCN1C(=O)CCC[C@@H]1/C=C/[C@@H](O)CCC1CCC1 = 7.3
CCCCC(C)(C)C(O)/C=C/[C@H]1CCCC(=O)N1CCSCCCC(=O)O (stereo partly specified) = 86
O=C(O)CCCSCCN1C(=O)CCC[C@@H]1CC[C@@H](O)c1ccc(C(F)(F)F)o1 = 105

-- ask I am curious: what Ki value has been reported for CC(C)c1cc(C[C@H](O)/C=C/[C@H]2CCCC(=O)N2CCCCCCC(=O)O)ccc1O ?
-- reply 130

-- ask Repeat for the following compound: Cc1cc(Cl)ccc1-c1cccc([C@H](O)CC[C@H]2CCCC(=O)N2CCSCCCC(=O)O)c1
-- reply 4.8

-- ask Repeat for the following compound: COCc1cccc(C[C@H](O)/C=C/[C@H]2CCCC(=O)N2CCCCCCC(=O)O)c1
-- reply 8.7

-- ask Repeat for the following compound: Cc1cc(O)ccc1-c1cccc([C@@H](O)CC[C@H]2CCCC(=O)N2CCCCCCC(=O)O)c1
-- reply 25

-- ask Repeat for the following compound: O=C(O)CCCSCCN1C(=O)CCC[C@@H]1/C=C/[C@@H](O)CCC1CC1
-- reply 21

-- ask Repeat for the following compound: COCc1cccc(C[C@H](O)/C=C/[C@H]2CCCC(=O)N2CCSCCCC(=O)O)c1
-- reply 22

-- ask Repeat for the following compound: O=C(O)CCCSCCN1C(=O)CCC[C@@H]1/C=C/C(O)C1(c2ccccc2)CC1 (stereo partly specified)
-- reply 17

-- ask Repeat for the following compound: Cc1cc(C[C@H](O)/C=C/[C@H]2CCCC(=O)N2CCCCCCC(=O)O)ccc1O
-- reply 7.4

###

# protocol: Binding affinity for prostanoid EP3 receptor
pKi: −log10 of the molar value.
outcome.measure: pKi

Examples from the recorded data:
COCc1cccc(C[C@H](O)/C=C/[C@H]2CCCC(=O)N2CCSCCCC(=O)O)c1 = < 5.00
O=C(O)CCCSCCN1C(=O)CCC[C@@H]1/C=C/[C@@H](O)CCC1CC1 = < 5.00

-- ask I am curious: what pKi value has been reported for O=C(O)CCCSCCN1C(=O)CCC[C@@H]1/C=C/[C@@H](O)CCC1CCC1 ?
-- reply < 5.00

###

Consider the following compounds and their measured Ki readings.
# protocol: Binding affinity for prostanoid EP2 receptor

-- ask I am curious: what Ki value has been reported for CCCCC(C)(C)C(O)/C=C/[C@H]1CCCC(=O)N1CCSCCCC(=O)O (stereo not given in full) ?
-- reply > 10 µM

-- ask Repeat for the following compound: COCc1cccc(C[C@H](O)/C=C/[C@H]2CCCC(=O)N2CCCCCCC(=O)O)c1
-- reply > 10 µM

-- ask Repeat for the following compound: CC(C)c1cc(C[C@H](O)/C=C/[C@H]2CCCC(=O)N2CCCCCCC(=O)O)ccc1O
-- reply > 10 µM

-- ask Repeat for the following compound: COCc1cccc(C[C@H](O)/C=C/[C@H]2CCCC(=O)N2CCSCCCC(=O)O)c1
-- reply > 10 µM

-- ask Repeat for the following compound: Cc1cc(Cl)ccc1-c1cccc([C@H](O)CC[C@H]2CCCC(=O)N2CCSCCCC(=O)O)c1
-- reply 1.6 µM

###

# protocol: Binding affinity for Prostanoid EP2 receptor
pKi: −log10 of the molar value.
outcome.measure: pKi

-- ask I am curious: what pKi value has been reported for O=C(O)CCCSCCN1C(=O)CCC[C@@H]1/C=C/[C@@H](O)CCC1CC1 ?
-- reply < 5.00

###

Consider the following compounds and their measured pKi readings.
# protocol: Binding affinity for prostanoid EP2 receptor
pKi: −log10 of the molar value.

Examples from the recorded data:
O=C(O)CCCSCCN1C(=O)CCC[C@@H]1/C=C/[C@@H](O)CCC1CCC1 = 5.42
O=C(O)CCCSCCN1C(=O)CCC[C@@H]1/C=C/C(O)C1(c2ccccc2)CC1 (stereo not given in full) = < 5.00

-- ask I am curious: what pKi value has been reported for Cc1cc(C[C@H](O)/C=C/[C@H]2CCCC(=O)N2CCCCCCC(=O)O)ccc1O ?
-- reply < 5.00

-- ask Repeat for the following compound: Cc1cc(O)ccc1-c1cccc([C@@H](O)CC[C@H]2CCCC(=O)N2CCCCCCC(=O)O)c1
-- reply < 5.00

-- ask Repeat for the following compound: O=C(O)CCCSCCN1C(=O)CCC[C@@H]1CC[C@@H](O)c1ccc(C(F)(F)F)o1
-- reply < 5.00
